Test system: Human immunodeficiency virus 1
Assay: Resistance factor, ratio of EC50 for multidrug-resistant HIV1 106-PR infected in HEK293T cells to wildtype HIV1 infected in HEK293T cells
Format: functional, HEK-293T
MEASURED_PROPERTY: Ratio EC50
Answers are plain numbers.

# SMILES_STR, EXPERIMENTAL_TARGET, Ratio EC50
rows = [
    ("CC(C)(C)NC(=O)[C@@H]1C[C@@H]2CCCC[C@@H]2CN1C[C@@H](O)[C@H](Cc1ccccc1)NC(=O)[C@H](CC(N)=O)NC(=O)c1ccc2ccccc2n1", "Human immunodeficiency virus 1", 1),
]

Return reported Ratio EC50 values for all items listed beneath this line.
1. COC(=O)N[C@H](C(=O)N[C@@H](Cc1ccccc1)[C@@H](O)CN(Cc1ccc(-c2ccccn2)cc1)NC(=O)[C@@H](NC(=O)OC)C(C)(C)C)C(C)(C)C
2. Cc1cccc(C)c1OCC(=O)N[C@@H](Cc1ccccc1)[C@@H](O)C[C@H](Cc1ccccc1)NC(=O)[C@H](C(C)C)N1CCCNC1=O
3. C=C(C)[C@]12C[C@@H](C)[C@@]34O[C@](c5ccccc5)(O[C@@H]1[C@@H]3[C@@H]1O[C@]1(CO)[C@@H](O)[C@]1(O)C(=O)C(C)=C[C@H]14)O2

7
10
1

Attribution: ChEMBL document CHEMBL2021767
